- System Tested: Kappa-type opioid receptor (Homo sapiens, UniProt P41145)
- Sequence (P41145 whole entry): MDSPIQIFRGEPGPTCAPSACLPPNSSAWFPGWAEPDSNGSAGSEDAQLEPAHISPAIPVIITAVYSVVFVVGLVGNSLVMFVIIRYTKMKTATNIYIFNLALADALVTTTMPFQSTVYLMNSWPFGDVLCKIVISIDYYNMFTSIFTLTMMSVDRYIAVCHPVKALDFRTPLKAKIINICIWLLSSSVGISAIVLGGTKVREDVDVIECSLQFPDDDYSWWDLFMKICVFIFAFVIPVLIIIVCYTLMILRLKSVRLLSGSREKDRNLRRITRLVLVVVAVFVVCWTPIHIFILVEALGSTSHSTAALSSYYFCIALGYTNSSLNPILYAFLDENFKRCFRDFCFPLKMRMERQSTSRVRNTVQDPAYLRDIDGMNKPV
- Experiment: Antagonist activity at human kappa opioid receptor expressed in CHO cells by [35S]GTP-gamma-S binding assay
- Assay type: functional, cell-based
Measurement Kind: Ki (µM)

Some compounds with recorded Ki:
# Smiles Structure, System Tested, Unit Label, Ki
measured = [
    ("NC(=O)c1ccc(Oc2ccc(CCNCCCc3ccccc3)cc2)nc1", "Kappa-type opioid receptor (Homo sapiens, UniProt P41145)", "µM", 0.0241),
    ("NC(=O)c1ccc(Oc2ccc(CNCc3ccccc3)cc2)nc1", "Kappa-type opioid receptor (Homo sapiens, UniProt P41145)", "µM", 0.00247),
]

[a] NC(=O)c1ccc(Oc2ccc(CCCNCc3ccccc3)cc2)nc1
[b] NC(=O)c1ccc(Oc2ccc(CCNCc3ccccc3)cc2)nc1
Recorded Ki values differ for a and b ; which one is higher? Give the label under which the chosen entry appears.
a

* * *

- System Tested: Delta-type opioid receptor (Homo sapiens)
- Sequence (P41143 whole entry): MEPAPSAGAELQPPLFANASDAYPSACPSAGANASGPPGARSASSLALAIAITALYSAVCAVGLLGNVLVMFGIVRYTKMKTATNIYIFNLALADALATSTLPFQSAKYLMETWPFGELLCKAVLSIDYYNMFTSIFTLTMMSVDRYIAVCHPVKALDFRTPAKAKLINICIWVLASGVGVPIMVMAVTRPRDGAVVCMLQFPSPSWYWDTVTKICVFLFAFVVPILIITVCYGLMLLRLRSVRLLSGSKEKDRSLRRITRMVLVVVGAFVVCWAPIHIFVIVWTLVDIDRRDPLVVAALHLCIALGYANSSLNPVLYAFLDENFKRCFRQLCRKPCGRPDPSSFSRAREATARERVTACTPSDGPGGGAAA
- Experiment: Antagonist activity at human delta opioid receptor expressed in CHO cells by [35S]GTP-gamma-S binding assay
- Assay type: functional, cell-based
Measurement Kind: Kb (nM)

Some molecules with recorded Kb:
# Smiles Structure, System Tested, Kb (nM)
records = [
    ("NC(=O)c1ccc(Oc2ccc(CCNCc3ccccc3)cc2)nc1", "Delta-type opioid receptor (Homo sapiens)", 23.1),
    ("C[C@H]1CN(CC[C@H](O)C2CCCCC2)CC[C@@]1(C)c1cccc(O)c1", "Delta-type opioid receptor (Homo sapiens)", 1.19),
    ("NC(=O)c1ccc(Oc2ccc(CNCCc3ccccc3)cc2)cn1", "Delta-type opioid receptor (Homo sapiens)", 2.86),
    ("NC(=O)c1ccc(Oc2ccc(CCNCCc3ccccc3)cc2)nc1", "Delta-type opioid receptor (Homo sapiens)", 128),
    ("NC(=O)c1ccc(Oc2ccc(CCNCCCc3ccccc3)cc2)nc1", "Delta-type opioid receptor (Homo sapiens)", 212),
]

[a] NC(=O)c1ccc(Oc2ccc(CCCNCc3ccccc3)cc2)nc1
[b] NC(=O)c1ccc(Oc2ccc(CNCc3ccccc3)cc2)nc1
Identify the item whose Kb is the smaller number: a or b Give the label under which the chosen entry appears.
b

* * *

- System Tested: Mu-type opioid receptor (Homo sapiens, UniProt P35372)
- Sequence (P35372 whole entry): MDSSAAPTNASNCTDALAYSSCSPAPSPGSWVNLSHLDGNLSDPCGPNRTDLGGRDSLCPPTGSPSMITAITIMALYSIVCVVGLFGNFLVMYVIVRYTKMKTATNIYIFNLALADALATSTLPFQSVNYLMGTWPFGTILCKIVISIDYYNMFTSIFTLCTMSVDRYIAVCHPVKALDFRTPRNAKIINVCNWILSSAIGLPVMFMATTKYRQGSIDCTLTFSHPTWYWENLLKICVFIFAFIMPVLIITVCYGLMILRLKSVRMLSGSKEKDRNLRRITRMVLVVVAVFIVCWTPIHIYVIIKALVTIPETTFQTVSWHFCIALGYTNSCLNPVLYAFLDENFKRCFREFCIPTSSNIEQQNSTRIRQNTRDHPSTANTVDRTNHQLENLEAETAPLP
- Experiment: Displacement of [3H]diprenorphine from human mu opioid receptor expressed in CHO cells in presence of high sodium by SPA
- Format: cell-based
Measurement Kind: Ki (nM)

Some molecules with recorded Ki:
# Smiles Structure, Ki, nM
rows = [
    ("N#Cc1ccc(Oc2ccc(CCNCc3ccccc3)cc2)nc1", 1080),
    ("CC(C)NC(=O)c1ccc(Oc2ccc(CNCCc3ccccc3)cc2)nc1", 52.3),
    ("CNC(=N)c1ccc(Oc2ccc(CNCCc3ccccc3)cc2)nc1", 235),
    ("O=C(c1ccc(Oc2ccc(CNCCc3ccccc3)cc2)nc1)N1CCCCC1", 389),
    ("NC(=O)c1ccc(Oc2ccc(CNCCc3ccccc3)cc2)nc1", 0.17),
]

[a] N=C(N)c1ccc(Oc2ccc(CNCCc3ccccc3)cc2)nc1
[b] NC(=O)c1ccc(Oc2ccc(CNCCc3ccccc3)cc2)cn1
Identify the item whose Ki is the smaller number: a or b Give the label under which the chosen entry appears.
b
(b: 1.77 nM, a: 20.6 nM)

* * *

- System Tested: Kappa-type opioid receptor (Homo sapiens, UniProt P41145)
- Experiment: Displacement of [3H]diprenorphine from human kappa opioid receptor expressed in CHO cells in presence of high sodium by SPA
- Format: cell-based
Measurement Kind: Ki (nM)

# Smiles Structure, System Tested, Unit Label, Ki
measured = [
    ("NC(=O)c1ccc(Oc2ccc(CNCCc3ccccc3)cc2)cn1", "Kappa-type opioid receptor (Homo sapiens, UniProt P41145)", "nM", 69.3),
    ("NC(=O)c1ccc(Oc2ccc(CNCCc3ccccc3)cc2)cc1", "Kappa-type opioid receptor (Homo sapiens, UniProt P41145)", "nM", 15),
]

[A] NC(=O)c1ccc(Oc2ccc(CCNCc3ccccc3)cc2)nc1
[B] CCNC(=O)c1ccc(Oc2ccc(CNCCc3ccccc3)cc2)nc1
Identify the item whose Ki is the smaller number: A or B Give the label under which the chosen entry appears.
A
